Taken from patent US10981911B2.

Quick note: these are pIC50 numbers for system: JAK1-JH1JH2 (Homo sapiens (Human), UniProt P23458)
Sequence (P23458 574-1154): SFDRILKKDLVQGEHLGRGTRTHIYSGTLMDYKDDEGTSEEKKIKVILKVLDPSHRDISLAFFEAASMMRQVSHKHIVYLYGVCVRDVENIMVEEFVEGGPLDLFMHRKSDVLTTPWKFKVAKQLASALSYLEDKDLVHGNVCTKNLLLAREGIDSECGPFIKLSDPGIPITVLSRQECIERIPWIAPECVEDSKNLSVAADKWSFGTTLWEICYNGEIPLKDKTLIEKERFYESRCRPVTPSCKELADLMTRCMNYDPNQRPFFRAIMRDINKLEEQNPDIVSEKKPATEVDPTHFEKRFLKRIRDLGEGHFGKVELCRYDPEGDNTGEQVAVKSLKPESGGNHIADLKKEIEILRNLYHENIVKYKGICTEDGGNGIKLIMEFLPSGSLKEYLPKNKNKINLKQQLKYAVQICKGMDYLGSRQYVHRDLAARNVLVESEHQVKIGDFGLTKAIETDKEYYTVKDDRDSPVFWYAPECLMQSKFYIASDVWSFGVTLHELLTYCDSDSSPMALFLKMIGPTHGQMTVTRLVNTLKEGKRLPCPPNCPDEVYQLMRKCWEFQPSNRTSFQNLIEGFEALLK
pIC50: −log10 of the molar value.
Measurement name: pIC50

{"columns": ["Structure as smiles", "Measurement name", "Prefix operator", "Reported value"],
 "data": [
  ["N#CC[C@H]1CC[C@H](n2c(CC(=O)N3CCCCC3)nc3cnc4[nH]ccc4c32)CC1", "pIC50", ">", 8.40],
  ["N#CCC12CCC(NC(=O)Cc3nc4cnc5[nH]ccc5c4n3[C@H]3CC[C@H](CC#N)CC3)(CC1)C2", "pIC50", "=", 9.70],
  ["N#CCCS(=O)(=O)NCc1nc2cnc3[nH]ccc3c2n1[C@H]1CC[C@H](CC#N)CC1", "pIC50", "=", 10.00],
  ["N#CC[C@H]1CC[C@H](n2c(-c3cccnc3N)nc3cnc4[nH]ccc4c32)CC1", "pIC50", "=", 8.43],
  ["N#CC[C@H]1CC[C@H](n2c(CNC(=O)Oc3ccccc3)nc3cnc4[nH]ccc4c32)CC1", "pIC50", "=", 9.70],
  ["N#CC[C@H]1CC[C@H](n2c(CC(=O)N3CCC(C#N)CC3)nc3cnc4[nH]ccc4c32)CC1", "pIC50", "=", 9.22]
]}

* * *

Biological target: Tyk2-JH1JH2 (Homo sapiens (Human), UniProt P29597, C1142A/C936A)
Sequence (P29597 580-1182 C936A/C1142A): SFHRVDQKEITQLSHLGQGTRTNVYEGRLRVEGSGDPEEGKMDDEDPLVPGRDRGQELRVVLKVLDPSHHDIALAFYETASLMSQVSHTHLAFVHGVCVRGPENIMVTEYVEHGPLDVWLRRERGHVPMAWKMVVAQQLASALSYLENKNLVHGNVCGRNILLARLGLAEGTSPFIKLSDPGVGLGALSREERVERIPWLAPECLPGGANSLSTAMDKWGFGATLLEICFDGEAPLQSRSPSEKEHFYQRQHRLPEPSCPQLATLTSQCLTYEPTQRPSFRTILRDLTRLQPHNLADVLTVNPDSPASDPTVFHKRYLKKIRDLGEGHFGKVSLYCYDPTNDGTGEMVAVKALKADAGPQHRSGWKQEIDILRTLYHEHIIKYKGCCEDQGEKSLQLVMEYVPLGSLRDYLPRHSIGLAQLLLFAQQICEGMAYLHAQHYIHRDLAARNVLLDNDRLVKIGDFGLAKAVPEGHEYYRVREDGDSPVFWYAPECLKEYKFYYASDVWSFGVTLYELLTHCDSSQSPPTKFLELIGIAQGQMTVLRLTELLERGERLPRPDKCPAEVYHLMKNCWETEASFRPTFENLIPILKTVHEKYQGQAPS
Assay: Enzymatic inhibition assay (RapidFire HTMS), Tyk2
Conditions: 50 μM ATP, 200 μM substrate
Please respond with y when measured IC50 is strictly beneath 5 nM, and with n in all other cases.

{"columns": ["Molecule", "Discrete label"],
 "data": [
  ["N#CC[C@H]1CC[C@H](n2c(-c3cncs3)nc3cnc4[nH]ccc4c32)CC1", "n"],
  ["N#CC[C@H]1CC[C@H](n2c(CC(=O)NCC34CC5CC(CC(O)(C5)C3)C4)nc3cnc4[nH]ccc4c32)CC1", "y"],
  ["CCOC(=O)Cn1cc(-c2nc3cnc4[nH]ccc4c3n2[C@H]2CC[C@H](CC#N)CC2)cn1", "n"],
  ["N#CC[C@H]1CC[C@H](n2c(CNC(N)=O)nc3cnc4[nH]ccc4c32)CC1", "y"],
  ["N#CC[C@H]1CC[C@H](n2c(CC(=O)Nc3ccc(C#N)cc3)nc3cnc4[nH]ccc4c32)CC1", "n"],
  ["CC(C)CN1CCC(NC(=O)Cc2nc3cnc4[nH]ccc4c3n2[C@H]2CC[C@H](CC#N)CC2)CC1", "y"],
  ["N#CC[C@H]1CC[C@H](n2c(Cc3ccn[nH]3)nc3cnc4[nH]ccc4c32)CC1", "n"],
  ["N#CC[C@H]1CC[C@H](n2c(CNC(=O)c3cn[nH]c3)nc3cnc4[nH]ccc4c32)CC1", "n"],
  ["C[S@@](=O)(=NCc1nc2cnc3[nH]ccc3c2n1[C@H]1CC[C@H](CC#N)CC1)c1ccccc1", "n"],
  ["C[Si](C)(C)C1CCC(c2nc3cnc4[nH]ccc4c3n2[C@H]2CC[C@H](CC#N)CC2)CC1 (some centres unmarked)", "n"],
  ["N#CC[C@H]1CC[C@H](n2c(C(=O)NCC3CC3)nc3cnc4[nH]ccc4c32)CC1", "n"]
]}

* * *

Overview of recorded IC50 for various compounds
Biological target: JAK1-JH1JH2 (Homo sapiens (Human), UniProt P23458)
Measurement name: IC50

{"columns": ["Structure as smiles", "Measurement name", "Reported value"],
 "data": [
  ["COCCCNC(=O)c1nc2cnc3[nH]ccc3c2n1[C@H]1CC[C@H](CC#N)CC1", "IC50", "1.3 nM"],
  ["C#Cc1ccc(C(=O)c2ccc(COCc3nc4cnc5[nH]ccc5c4n3[C@H]3CC[C@H](CC#N)CC3)cc2)cc1", "IC50", "0.7 nM"],
  ["N#CC[C@H]1CC[C@H](n2c(CNC(=O)NCC3CCCCC3)nc3cnc4[nH]ccc4c32)CC1", "IC50", "1.3 nM"],
  ["N#CC[C@H]1CC[C@H](n2c(CNC(=O)C3CCCCC3)nc3cnc4[nH]ccc4c32)CC1", "IC50", "0.9 nM"],
  ["COC1CCN(C(=O)Cc2nc3cnc4[nH]ccc4c3n2[C@H]2CC[C@H](CC#N)CC2)CC1", "IC50", "< 4 nM"],
  ["CNC(=O)c1nc2cnc3[nH]ccc3c2n1[C@H]1CC[C@H](CC#N)CC1", "IC50", "0.8 nM"]
]}
